target: Prostaglandin G/H synthase 1 (Homo sapiens, UniProt P23219)
Sequence (P23219 whole entry): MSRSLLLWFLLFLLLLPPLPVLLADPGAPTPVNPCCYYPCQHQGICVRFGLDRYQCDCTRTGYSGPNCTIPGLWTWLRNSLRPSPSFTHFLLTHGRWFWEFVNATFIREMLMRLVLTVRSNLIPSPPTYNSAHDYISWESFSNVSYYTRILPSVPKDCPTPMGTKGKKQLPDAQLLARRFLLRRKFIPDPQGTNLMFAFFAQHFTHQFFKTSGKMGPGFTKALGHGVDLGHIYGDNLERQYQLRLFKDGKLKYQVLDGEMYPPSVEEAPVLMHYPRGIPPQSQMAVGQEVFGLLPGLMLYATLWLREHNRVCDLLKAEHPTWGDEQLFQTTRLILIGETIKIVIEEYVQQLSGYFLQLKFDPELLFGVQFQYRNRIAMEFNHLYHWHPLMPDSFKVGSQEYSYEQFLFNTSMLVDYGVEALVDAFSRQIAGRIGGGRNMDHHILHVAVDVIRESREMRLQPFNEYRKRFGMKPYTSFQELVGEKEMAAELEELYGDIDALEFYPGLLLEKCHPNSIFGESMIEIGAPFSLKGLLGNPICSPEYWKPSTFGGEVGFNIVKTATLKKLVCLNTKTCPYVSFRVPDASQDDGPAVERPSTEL
Observable: IC50

CCCNC(=O)c1cc(C(C)(C)C)c2c(c1)C(C)(C)CO2 :: 550 nM
CC(C)(C)c1cc(-c2cccs2)cc2c1OCC2(C)C :: 200 nM
CC(C)(C)c1cc(C=C2CCOC2=O)cc2c1OCC2(C)C :: 45 nM
COCCNC(=O)c1cc(C(C)(C)C)c2c(c1)C(C)(C)CO2 :: 1000 nM
CCCCNC(=O)c1cc(C(C)(C)C)c2c(c1)C(C)(C)CO2 :: 2500 nM
CC(C)(C)c1cc(Nc2ccccc2C(=O)O)cc2c1OCC2(C)C :: 2500 nM
CC(=O)Nc1cc(C(C)(C)C)c2c(c1)C(C)(C)CO2 :: 3500 nM
CCCN(C(=O)c1cc(C(C)(C)C)c2c(c1)C(C)(C)CO2)C1CC1 :: 4500 nM

List reported IC50 for each of these compounds:
1. CC(C)(C)c1cc(-c2cn3ccsc3n2)cc2c1OCC2(C)C
2. CC(C)(C)c1cc(C(=O)c2cccs2)cc2c1OCC2(C)C
3. CC(C)(C)c1cc(C(=O)NC2CC2)cc2c1OCC2(C)C
4. CC(C)(C)c1cc(C(=N)N2CCCC2)cc2c1OCC2(C)C
5. CC(C)(C)c1cc(/C=C2/SC(N)=NC2=O)cc2c1OCC2(C)C
6. CCCCCNC(=O)c1cc(C(C)(C)C)c2c(c1)C(C)(C)CO2
7. CCNC(=O)c1cc(C(C)(C)C)c2c(c1)C(C)(C)CO2
8. Cn1cccc1C(=O)c1cc(C(C)(C)C)c2c(c1)C(C)(C)CO2

Response:
1. 75 nM
2. 45 nM
3. 290 nM
4. > 100000 nM
5. 5000 nM
6. 2000 nM
7. 20000 nM
8. 35 nM

====

Field: Inhibition. Provide a value for each of the compounds that follow.
species on record: Rattus norvegicus; test: Analgesic activity in phenylquinone-induced abdominal constriction assay (PAC); assay type: functional, Abdomen; set-up: concentration or dose not given beside the values
One number for each entry, in %.

CCCN(C)C(=O)c1cc(C(C)(C)C)c2c(c1)C(C)(C)CO2 :: 36
CC(C)(C)c1cc(C(=O)NC2CC2)cc2c1OCC2(C)C :: 20
CC(C)(C)c1cc(C(=N)N2CCCC2)cc2c1OCC2(C)C :: 0
CC(C)(C)c1cc(-c2cscn2)cc2c1OCC2(C)C :: 59
CC(C)(C)c1cc(/C=C\c2cccs2)cc2c1OCC2(C)C :: 13
CC(C)(C)c1cc(C(=O)c2ccsc2)cc2c1OCC2(C)C :: 40
CCCNC(=O)c1cc(C(C)(C)C)c2c(c1)C(C)(C)CO2 :: 63
CC(C)(C)c1cc(-c2ccco2)cc2c1OCC2(C)C :: 7
CC(C)(C)c1cc(-c2cccs2)cc2c1OCC2(C)C :: 52
Cc1cc(/C=C\c2cc(C(C)(C)C)c3c(c2)C(C)(C)CO3)[nH]n1 :: 35

List reported Inhibition for each of these compounds:
1. CCNC(=O)Nc1cc(C(C)(C)C)c2c(c1)C(C)(C)CO2
2. CC(C)(C)c1cc(C(=O)c2cccs2)cc2c1OCC2(C)C
3. CC(C)(C)c1cc(C(=O)c2ccco2)cc2c1OCC2(C)C
4. CC(C)(C)c1cc(/C=C(/C(=O)O)c2cccs2)cc2c1OCC2(C)C
5. CC(C)(C)c1cc(C(=O)c2ccoc2)cc2c1OCC2(C)C

Response:
36
34
24
19
3

====

target: Polyunsaturated fatty acid 5-lipoxygenase (Homo sapiens, UniProt P09917)
Sequence (P09917 whole entry): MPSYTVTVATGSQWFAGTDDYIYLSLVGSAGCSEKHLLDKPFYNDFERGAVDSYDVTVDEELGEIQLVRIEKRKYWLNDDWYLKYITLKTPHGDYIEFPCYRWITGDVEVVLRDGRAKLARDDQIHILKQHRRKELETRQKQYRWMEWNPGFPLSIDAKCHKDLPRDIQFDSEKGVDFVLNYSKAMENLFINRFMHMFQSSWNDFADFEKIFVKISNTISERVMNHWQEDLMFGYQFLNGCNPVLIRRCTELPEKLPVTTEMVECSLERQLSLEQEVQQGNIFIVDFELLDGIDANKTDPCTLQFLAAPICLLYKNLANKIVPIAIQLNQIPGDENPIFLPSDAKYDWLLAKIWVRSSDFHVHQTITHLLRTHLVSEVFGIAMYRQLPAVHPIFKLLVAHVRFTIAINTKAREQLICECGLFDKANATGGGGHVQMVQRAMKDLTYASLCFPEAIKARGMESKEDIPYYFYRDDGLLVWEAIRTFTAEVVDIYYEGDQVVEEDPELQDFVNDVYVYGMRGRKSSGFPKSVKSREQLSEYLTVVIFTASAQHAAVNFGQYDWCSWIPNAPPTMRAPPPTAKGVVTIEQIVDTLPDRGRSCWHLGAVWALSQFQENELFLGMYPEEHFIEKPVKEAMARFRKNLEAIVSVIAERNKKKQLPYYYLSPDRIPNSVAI
Field: log10 IC50. Provide a value for each of the compounds that follow.
Record value = log10 of IC50 given in µM.

For orientation, consider the following solved cases.
CN(C(=O)c1cc(C(C)(C)C)c2c(c1)C(C)(C)CO2)C1CC1 :: 1.08
COCCNC(=O)c1cc(C(C)(C)C)c2c(c1)C(C)(C)CO2 :: 1.70

List reported log10 IC50 for each of these compounds:
1. CC(C)(C)c1cc(C(=N)N2CCCC2)cc2c1OCC2(C)C
2. CC(C)(C)c1cc(C(=O)c2cccs2)cc2c1OCC2(C)C
3. CC(C)(C)c1cc(-c2cn3ccsc3n2)cc2c1OCC2(C)C
4. CC(C)(C)c1cc(/C=C\c2cccs2)cc2c1OCC2(C)C
5. CC(C)(C)c1cc(C=C2CCOC2=O)cc2c1OCC2(C)C
6. CCN(C)C(=O)c1cc(C(C)(C)C)c2c(c1)C(C)(C)CO2
7. CC(C)(C)c1cc(-c2cccs2)cc2c1OCC2(C)C

Response:
1: 1.48; 2: 1.00; 3: 1.00; 4: 0.78; 5: 0.60; 6: 1.34; 7: 0.95

====

Biological target: Prostaglandin G/H synthase 2 (Homo sapiens)
Sequence (P35354 whole entry): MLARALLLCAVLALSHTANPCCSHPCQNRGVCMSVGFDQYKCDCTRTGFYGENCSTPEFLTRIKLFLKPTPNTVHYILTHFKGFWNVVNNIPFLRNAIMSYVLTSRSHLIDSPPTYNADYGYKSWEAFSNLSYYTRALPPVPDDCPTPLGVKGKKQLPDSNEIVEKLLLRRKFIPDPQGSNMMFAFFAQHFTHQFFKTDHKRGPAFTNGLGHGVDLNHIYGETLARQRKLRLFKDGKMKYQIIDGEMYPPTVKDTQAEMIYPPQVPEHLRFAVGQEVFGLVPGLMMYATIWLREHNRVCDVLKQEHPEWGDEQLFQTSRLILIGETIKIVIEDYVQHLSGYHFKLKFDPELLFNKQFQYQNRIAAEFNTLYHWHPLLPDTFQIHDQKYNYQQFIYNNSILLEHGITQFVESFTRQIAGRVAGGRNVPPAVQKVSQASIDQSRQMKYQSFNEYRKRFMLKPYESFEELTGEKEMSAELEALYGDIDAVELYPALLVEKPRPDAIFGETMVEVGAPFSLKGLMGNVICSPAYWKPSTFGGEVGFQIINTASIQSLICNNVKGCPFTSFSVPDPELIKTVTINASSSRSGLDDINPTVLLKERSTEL
pIC50: −log10 of the molar value.
Assign yes whenever pIC50 does not fall below 7; assign no whenever it does.

These recorded examples may help you get a feel for the data.
CC(C)(C)c1cc(C(=O)c2cccs2)cc2c1OCC2(C)C :: yes
CC(C)(C)c1cc(/C=C2/SC(N)=NC2=O)cc2c1OCC2(C)C :: no
CCCN(C(=O)c1cc(C(C)(C)C)c2c(c1)C(C)(C)CO2)C1CC1 :: no
CCNC(=O)c1cc(C(C)(C)C)c2c(c1)C(C)(C)CO2 :: no
CCN(C)C(=O)c1cc(C(C)(C)C)c2c(c1)C(C)(C)CO2 :: no
Cn1cccc1C(=O)c1cc(C(C)(C)C)c2c(c1)C(C)(C)CO2 :: yes
CC(C)(C)c1cc(-c2cn3ccsc3n2)cc2c1OCC2(C)C :: yes
CC(C)(C)c1cc(/C=C\c2cccs2)cc2c1OCC2(C)C :: yes

Request: Determine whether measured pIC50 meets or exceeds 7 for `CC(C)(C)c1cc(C=C2CCOC2=O)cc2c1OCC2(C)C`
Response: yes

Request: Determine whether measured pIC50 meets or exceeds 7 for `CC(C)(C)c1cc(C(=O)NC2CC2)cc2c1OCC2(C)C`
Response: no

Request: Determine whether measured pIC50 meets or exceeds 7 for `CC(C)(C)c1cc(C(=N)N2CCCC2)cc2c1OCC2(C)C`
Response: no

Request: Determine whether measured pIC50 meets or exceeds 7 for `COCCNC(=O)c1cc(C(C)(C)C)c2c(c1)C(C)(C)CO2`
Response: yes

Request: Determine whether measured pIC50 meets or exceeds 7 for `CCCCNC(=O)c1cc(C(C)(C)C)c2c(c1)C(C)(C)CO2`
Response: no

Request: Determine whether measured pIC50 meets or exceeds 7 for `CC(C)(C)c1cc(Nc2ccccc2C(=O)O)cc2c1OCC2(C)C`
Response: no

====

Field: CPE index. Provide a value for each of the molecules that follow.
test system: Rattus norvegicus; test: Inhibition of paw swelling relative to the tebufelone in rat. Value was reported as Carrageenan paw edema index; format: functional
Numbers only.

For orientation, consider the following solved cases.
CC(C)(C)c1cc(C(=O)Nc2nccs2)cc2c1OCC2(C)C :: 0.49
CC(C)(C)c1cc(C(=O)N2CCCC2)cc2c1OCC2(C)C :: 0.78
CC(C)(C)c1cc(/C=C\c2cccnc2)cc2c1OCC2(C)C :: 0.78
CC(C)(C)c1cc(C(=O)NC2=NCCS2)cc2c1OCC2(C)C :: 0.81
CC(C)(C)c1cc(C(=O)NCC(O)CO)cc2c1OCC2(C)C (configuration not stated) :: 0.51

List reported CPE index for each of these molecules:
1. CC(C)(C)c1cc(C(=N)N2CCCC2)cc2c1OCC2(C)C
2. CC(C)(C)c1cc(-c2cn3ccsc3n2)cc2c1OCC2(C)C

Response:
0.8
0.81
